Quick reference: Emax of the listed items.
# Target: Human TREM2 (Homo sapiens, UniProt Q9NZC2)
# Construct: expressed in transfected cells
# Sequence (Q9NZC2 19-230): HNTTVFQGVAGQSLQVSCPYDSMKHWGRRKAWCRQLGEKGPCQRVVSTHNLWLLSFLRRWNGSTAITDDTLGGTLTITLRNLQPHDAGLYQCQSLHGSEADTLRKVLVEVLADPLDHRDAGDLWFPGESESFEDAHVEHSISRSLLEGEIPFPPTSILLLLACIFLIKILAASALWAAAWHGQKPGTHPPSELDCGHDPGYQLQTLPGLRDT
# Sequence (O43914 22-113 partner): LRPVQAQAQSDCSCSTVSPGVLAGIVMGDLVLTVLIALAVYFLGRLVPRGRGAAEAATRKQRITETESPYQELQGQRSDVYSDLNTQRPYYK
# Protocol Summary: Human TREM2 activity: cellular phosphorylation of Syk (AlphaLISA SureFire Ultra p-SYK) in HEK293/DAP12+TREM2 stable cell line
# Format: cell-based
# Cond: HEK293; maximal response relative to reference agonist example 1B (remaining examples); read-out: Emax

Compound	Emax
Cc1cc([C@@H]2CN(c3cc4c(=O)n(C)c(C)nc4c(-c4ccc(F)cc4F)n3)C[C@H](C)O2)ccn1 (single isomer, unassigned) [Example 182A]	> 110%
Cc1nc2c(-c3cc(F)c(F)cc3F)nc([C@@H]3CCO[C@H](c4cnn(C5CC5)c4)C3)nc2c(=O)n1C (single isomer, unassigned) [Example 97A]	75 to 110%
Cc1nc2c(-c3ccc(Cl)cc3F)nc(N3CCN(C)C(c4cnn(C)c4)C3)nc2c(=O)n1C (stereo not drawn) [Example 29]	< 75%
Cc1nc2c(-c3ccc(C(F)(F)F)cc3F)nc(N3CCO[C@H](c4cnn(C5CC5)c4)C3)cc2c(=O)n1C (single isomer, unassigned) [Example 132A]	75 to 110%
Cc1nc2c(-c3cc(F)c(F)cc3F)nc(N3CCO[C@@H](c4cnn(C)c4)C3)cc2c(=O)n1C (single isomer, unassigned) [Example 130A]	< 75%
Cc1nc2c(-c3ccc(F)cc3F)nc(N3CC(C)OC(c4cnn(C5CC5)c4)C3)nc2c(=O)n1C (racemic) [Example 177C]	< 75%
Cc1cc([C@H]2CN(c3nc(-c4ccc(F)cc4F)c4nc(C)n(C)c(=O)c4n3)CC(C)(C)O2)ccn1 (single isomer, unassigned) [Example 170B]	75 to 110%
Cc1nc2c(-c3cc(F)c(F)cc3F)nc(N3CCO[C@H](c4cnn(C5CC5)c4)C3)cc2c(=O)n1C (single isomer, unassigned) [Example 133A]	75 to 110%
Cc1nc2c(-c3ccc(Cl)cc3F)nc(N3CCN(CCF)C(c4cnn(C)c4)C3)nc2c(=O)n1C (stereo not drawn) [Example 31]	75 to 110%
Cc1cc([C@@H]2CN(c3nc(-c4ccc(F)cc4F)c4nc(C)n(C)c(=O)c4n3)CC(C)(C)O2)ccn1 (single isomer, unassigned) [Example 170A]	< 75%
Cc1nc2c(-c3ccc(C(F)(F)F)nc3)nc(N3CCC(F)(F)[C@H](c4cnn(C)c4)C3)nc2c(=O)n1C (single isomer, unassigned) [Example 92]	< 75%
Cc1cc([C@@H]2CN(c3cc4c(=O)n(C)c(C)nc4c(-c4ccc(F)cc4F)n3)CCO2)ccn1 (single isomer, unassigned) [Example 136A]	75 to 110%

* * *

Quick reference: Emax of the listed items.
# Target: Human TREM2 (Homo sapiens)
# Construct: expressed in transfected cells
# Protocol Summary: Human TREM2 activity: cellular phosphorylation of Syk (AlphaLISA SureFire Ultra p-SYK) in HEK293/DAP12+TREM2 stable cell line
# Type: cell-based
# Cond: HEK293; maximal response relative to reference agonist example 1B (remaining examples); read-out: Emax
Endpoint Label: Emax

Compound	Target	Endpoint Label	Meas Value
Cc1nc2c(-c3cc(F)c(F)cc3F)nc([C@H]3CCO[C@@H](c4cnn(C5CC5)c4)C3)nc2c(=O)n1C (single isomer, unassigned) [Example 97B]	Human TREM2 (Homo sapiens)	Emax	< 75%
Cc1nc2c(-c3ccc(Cl)cc3F)nc(N3C[C@@H](c4cnn(C)c4)OC(C)(C)C3)nc2c(=O)n1C (single isomer, unassigned) [Example 89A]	Human TREM2 (Homo sapiens)	Emax	75 to 110%
Cc1nc2c(-c3ccc(Cl)cc3F)nc(N3CCC(c4cnn(C)c4)C3)nc2c(=O)n1C (stereo not drawn)	Human TREM2 (Homo sapiens)	Emax	< 75%
